Test system: NCI-H23 lung
Test: NCI-60 one-dose screen, 48 h (100 = growth as untreated, 0 = no growth, -100 = all killed)
Details: 10 µM unless noted
About 83,000 compounds went through this panel and 20% of them were active in at least one assay; those are over-represented in the sample as a whole.
For each record, write down the corresponding growth.
The reply should contain only the number, in %.

Which growth reading was recorded for the compound CC(C)c1cccc(C#N)c1 ?
92.8

I am curious: what growth value has been reported for COc1ccc(-c2nc3ccccc3n3cccc23)cc1 ?
86.1

For the compound CN(C)CCCn1c(=O)c2cc([N+](=O)[O-])ccc2c2cnc3[nH]ccc3c21 , what growth is on record?
58.8

Look at this compound and give its reported growth. C=CCN(CC#N)CC=C
106

I'd like to know its growth. The compound in question is c1cc(C2CCCCC2)ccc1-c1cnc2nonc2n1
38.7

Given the compound O=[N+]([O-])c1ccc(N/N=C/c2ccccc2O)nc1 , what is its reported growth?
33.9

So what does the record say about growth for CCCCCCCC/C=C\CCCCCCCC(=O)OCCCCCC ?
98.4
